biological target: HLA-A*11:01 (Homo sapiens, UniProt P04439, A114D/D185E/E176A/F33Y/L180Q/S129P/T187R); construct: purchased Pure Protein L.L.C; assay: Fluorescence polarization competitive peptide-binding assay
Ends that are not written are not given here.
Label key: Fulfilled means IC50 under 1 µM; Not fulfilled means IC50 of 1 µM or more.

Qu. State whether 1 µM exceeds IC50 recorded for KNMEKPGLK [KNM9] .
Ans. Not fulfilled

Qu. State whether 1 µM exceeds IC50 recorded for GTLTSAINR [GTL9] .
Ans. Not fulfilled

Qu. State whether 1 µM exceeds IC50 recorded for KSYETEYPK [KSY9] .
Ans. Not fulfilled

Qu. State whether 1 µM exceeds IC50 recorded for RVLSLIGLK [RVL9] .
Ans. Fulfilled

Qu. State whether 1 µM exceeds IC50 recorded for AIIEVDRSAAK [AII11] .
Ans. Not fulfilled

Qu. State whether 1 µM exceeds IC50 recorded for AVVVNPSVK [AVV9] .
Ans. Not fulfilled

Where these numbers come from: paper PMC3677933
